Data origin: paper PMC12102759

Below, each of the variants is paired with its reported screen value value.
B1: PIP5K1C peptide 640-655 (Phosphatidylinositol 4-phosphate 5-kinase type-1 gamma), 16-mer library wild type / TLN1 PTB (TLN1 Phosphotyrosine-binding (PTB) domain, residues 309-401) (parent)
chain 1: FPTDERSWVYSPLHYS
chain 2: GVSFFLVKEKMKGKNKLVPRLLGITKECVMRVDEKTKEVIQEWNLTNIKRWAASPKSFTLDFGDYQDGYYSVQTTEGEQIAQLIAGYIDIILK

variants of: B1; test: proteomic peptide phage display deep mutational scan (ProP-PD DMS): M13 P8 16-mer library selected against immobilised GST-tagged bait for four days (rounds), NGS of the eluted pools per day and pseudo-replica; conditions: with TLN1 PTB (TLN1 Phosphotyrosine-binding (PTB) domain, residues 309-401); bait immobilised on MaxiSorp plates (10 µg), library pre-cleared on GST, 2 h binding at 4 °C, five washes; one round per day, days 1-4; value from days 2 and 3; keep out of graded; scale: average fractional NGS count over selection days 2 and 3
Respond numerically, and do not add a unit to the figure.

chain 1 P12I; 0.000302
chain 1 P2E; 0.000182
chain 1 L13S; 0.000183
chain 1 S11M; 3.45e-05
chain 1 S16Y; 0.000212

Looking for the measured screen value of chain 1 H14Q , can you help?
0.000124

Would you mind telling me what screen value value was observed for chain 1 S11I ?
0

Any idea what screen value was measured for chain 1 V9A ?
0.000113

Give the measured screen value of chain 1 P12S .
0.000121

If you can, please state the reported screen value value of chain 1 H14F .
2.74e-05
